Target: Cad1 (UniProt P24813)
Sequence: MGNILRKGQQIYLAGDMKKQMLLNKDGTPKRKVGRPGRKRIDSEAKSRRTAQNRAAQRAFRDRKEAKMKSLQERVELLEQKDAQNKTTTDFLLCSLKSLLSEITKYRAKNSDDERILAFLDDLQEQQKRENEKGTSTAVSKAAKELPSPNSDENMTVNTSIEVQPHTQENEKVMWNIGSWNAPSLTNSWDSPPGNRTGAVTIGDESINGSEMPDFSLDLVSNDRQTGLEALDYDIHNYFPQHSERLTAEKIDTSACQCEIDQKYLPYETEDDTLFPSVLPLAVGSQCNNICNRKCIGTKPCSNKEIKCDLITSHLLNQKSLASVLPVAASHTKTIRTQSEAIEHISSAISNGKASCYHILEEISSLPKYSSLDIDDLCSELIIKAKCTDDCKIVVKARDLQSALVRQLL
Assay: PBM E-score (8-mer binding enrichment) (E-score (-0.5 to 0.5)); higher = stronger / more preferred TF binding
Conditions: protein concentration: 100 nM; construct: GST-full length
Whole data set: some 33,000 sequences, median “E-score (-0.5 to 0.5)” near -0.0014, cut for the highest 2% near 0.25. Only a selection was taken, and the highest values are over-represented in it overall.
measuredProperty: PBM E-score
Keep the answer to the number alone.

Noted for ACCGTATA : its PBM E-score reads -0.00739

What the record says about ATGCGCAA : PBM E-score is 0.107

Field PBM E-score (entry GCGGAAGC ) reads 0.0712

Note to self: PBM E-score recorded for AGGTCAAC was 0.00774

Sample AGGACCCA ; PBM E-score observed: -0.22

Entry under test: GATCAAAA . Its PBM E-score was 0.144

Per the record, CCCGTTCG has PBM E-score of 0.016

Record summary for ATTTGCAA : reported PBM E-score = 0.277

Kindly note the recorded PBM E-score for GTTTGAAA , which is 0.113

Please fill in: PBM E-score reported for GCGCAGAA = 0.262

Recorded PBM E-score (sequence TTGCGCAA ): 0.258

The sequence TGGCGCAA showed PBM E-score equal to -0.0637

Form: sequence = TCGCAGAA ; PBM E-score = -0.192

sequence GTGCGCAA , PBM E-score observed: 0.0688

PBM E-score measured on TAGCGCAA = 0.207

====

Target: Cad1 (UniProt P24813)
Sequence: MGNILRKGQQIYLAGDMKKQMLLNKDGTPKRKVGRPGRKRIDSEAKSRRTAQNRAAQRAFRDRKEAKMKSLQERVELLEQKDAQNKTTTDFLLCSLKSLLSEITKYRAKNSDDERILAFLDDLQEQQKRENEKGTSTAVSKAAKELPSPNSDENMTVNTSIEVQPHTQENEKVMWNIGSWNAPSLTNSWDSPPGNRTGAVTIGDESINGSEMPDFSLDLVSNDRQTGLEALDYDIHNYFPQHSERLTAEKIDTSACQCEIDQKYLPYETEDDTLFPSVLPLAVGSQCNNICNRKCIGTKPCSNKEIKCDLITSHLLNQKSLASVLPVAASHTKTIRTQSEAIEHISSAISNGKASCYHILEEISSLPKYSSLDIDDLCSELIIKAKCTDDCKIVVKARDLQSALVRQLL
Assay: PBM E-score (8-mer binding enrichment) (E-score (-0.5 to 0.5)); higher = stronger / more preferred TF binding
Details: protein concentration: 100 nM; construct: GST-full length
Whole data set: some 33,000 sequences, median “E-score (-0.5 to 0.5)” near -0.0014, cut for the highest 2% near 0.25. This excerpt belongs to a sample that is enriched for the highest values.
measuredProperty: PBM E-score
Please state the value as a number alone, without comment.

PBM E-score measured on CATATTTC = 0.0121

Reported PBM E-score for CCGGACTA was -0.0508

Value of PBM E-score reported for the sequence ACTAATGA is 0.128

Value of PBM E-score reported for the sequence ACTAATTA is 0.377

Sample CCTAATTC ; PBM E-score observed: -0.115

Per the record, AATATTTG has PBM E-score of 0.255

// field: PBM E-score; key: ATGTAAGG ; value = 0.0288

Reported PBM E-score of ACTAATGC : 0.275

# sequence CGCTAGAG ; its PBM E-score = -0.115

Measured PBM E-score of CTTATTTA : -0.00667

PBM E-score in this record for AAGTTGAG : 0.0317

Lab book: PBM E-score of AATATTTA noted as 0.213

Sample GCTAATGA ; PBM E-score observed: -0.0534

For record CTCGCTCA the listed PBM E-score is 0.138

Measured PBM E-score, AATATTTC : 0.264

The reported value for CCAGCTGA in terms of PBM E-score is 0.155

Measured PBM E-score, ACGGACTC : -0.0126

// PBM E-score value for CCTAATTA : 0.156
